assay-system: 5-HT1A serotonin receptor (Rattus norvegicus, UniProt P19327)
Sequence (P19327 whole entry): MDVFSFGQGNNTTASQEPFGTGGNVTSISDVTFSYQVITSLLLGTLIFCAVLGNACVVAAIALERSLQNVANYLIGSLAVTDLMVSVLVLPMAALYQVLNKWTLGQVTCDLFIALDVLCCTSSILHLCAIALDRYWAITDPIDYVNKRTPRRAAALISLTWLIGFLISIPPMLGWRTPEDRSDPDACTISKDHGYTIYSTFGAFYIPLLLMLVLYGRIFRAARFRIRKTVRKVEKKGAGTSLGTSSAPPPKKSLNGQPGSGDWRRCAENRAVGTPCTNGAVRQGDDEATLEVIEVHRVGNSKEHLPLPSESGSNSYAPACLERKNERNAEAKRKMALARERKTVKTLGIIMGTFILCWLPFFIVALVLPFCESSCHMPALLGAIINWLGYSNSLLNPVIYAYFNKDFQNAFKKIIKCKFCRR
pIC50: −log10 of the molar value.
// reported pIC50 for each item listed

{"columns": ["molecule", "pIC50"],
 "data": [
  ["COc1ccsc1C1(O)CCN(C[C@H](Cc2ccccc2)NC(=O)OC(C)(C)C)CC1 [Example 1]", 7.10],
  ["COc1ccsc1C1=CCN(C[C@H](Cc2ccccc2)NC(=O)OC(C)(C)C)CC1 [Example 2]", 8.80],
  ["COc1ccsc1C1=CCN(C[C@H](Cc2ccccc2)NC(=O)C2CCCCC2)CC1 [Example 3]", 9.11],
  ["COc1ccsc1C1CCN(C[C@H](Cc2ccccc2)NC(=O)C2CCCCC2)CC1 [Example 4]", 8.96]
]}
